- System: HIV-1 (NL4-3 strain)
- ASSAY REMARKS: Assay for Inhibition of HIV Replication (kinetic assay, MT4-gag-GFP reporter cell line; VIKING)
- Type: cell-based
- PARTICULARS: MT4-GFP cells infected with HIV-1 NL4-3; 0% normal human serum (NHS); read-out: VIKING IP50 (nM) with 0% NHS
Reported IC50 is given for each of the following compounds.
Supply the numeric figure in nM, leaving out any unit text.

Solved entries:
| COMPOUND | IC50 (nM) |
| --- | --- |
| CCNC1CC2C3OCCCN3C(=O)c3c(O)c(=O)c(C(=O)NCc4cccc(F)c4F)c1n32 (stereo not shown) [Compound 189] | 11 |
| CC12OCCCN1C(=O)c1c(O)c(=O)c(C(=O)NCc3ccc(F)cc3F)c3n1C2CC3 (stereo not shown) [Compound 135] | 0.791 |
| COC1CC2C3N(C)CCN3C(=O)c3c(O)c(=O)c(C(=O)NCc4ccc(F)cc4F)c1n32 (stereo not shown) [Compound 124] | 7.41 |

// below: IC50 requested for another compound
Consider the compound CCNC1CC2C3OCCCN3C(=O)c3c(O)c(=O)c(C(=O)NCc4cccc(F)c4F)c1n32 (stereo not shown) [Compound 187] and give its measured IC50.
3.51
